- subjectOfTest: T1, extracellular domain (ECD) of human TrkA protein, N-terminal flag tag and C-terminal His tag (PHA) (human, UniProt P04629 33-423)
- T1 construct: Made in 293-F cells and purified by IMAC; also called TrkA ECD protein; TrkA (ECD); not shown: flag tag at the N-terminus (after the signal peptide); His tag at the C-terminus
- protocolText: BLI (Octet Red384), antibody captured on anti-human Fc AHQ tips, antigen 100 nM
Some binders, each annotated with its measured kon.
Report the value in M⁻¹ s⁻¹ with no unit label.

Example entries and their recorded answers appear below.
binder	measuredAttribute	readoutUnit	quantitativeResult
PHD48-01 (humanized muPHD48) (antibody, human IgG4, V domains shown) VH: QVQLVQSGAEVKKPGASVKVSCKASGYSFTTYWMHWVRQAPGQGLEWIGTIYPGNSDSSNNQKFKGRATLTADTSTSTAYMELSSLRSEDTAVYYCTRFYYEDWYFDVWGQGTMVTVSS VL: DIQMTQSPSSLSASVGDRVTITCSASSSVSYMYWFQQKPGKAPKPWIYRTSNLASGVPSRFSGSGSGTDYTLTISSLQPEDFATYYCQQYHSYPPTFGGGTKVEIK	kon	M⁻¹ s⁻¹	207000
chi-PHD48 (the chimeric antibody derived from muPHD48) (antibody, V domains shown, Chimeric: VH in the pCDNA3.4-hIgG4 vector and VL in the pCDNA3.4-hKappa vector (human IgG4 / human kappa constant regions)) VH: EVQLQQSGTVLARPGASVKMSCKASGYSFTTYWMHWVKQRPGQGLEWIGTIYPGNSDSSNNQKFKGKAKLTAVTSASTAYMELSSLTNEDSAVYYCTRFYYEDWYFDVWGAGTTVTVSS VL: QIVLTQSPAIMSASPGEKVTISCSASSSVSYMYWFQQKPGSSPKPWIYRTSNLASGVPARFSGSGSGTSYSLTISSMEAEDAATYYCQQYHSYPPTFGGGTKLEIK	kon	M⁻¹ s⁻¹	214000
chi-PHD49 (antibody, V domains shown, Chimeric: human IgG4 / human kappa constant regions (pCDNA3.4-hIgG4 and pCDNA3.4-hKappa vectors)) VH: QVQLQQSGAELARPGASVKLSCKASGYTFSSYWMQWVKQRPGQGLEWIGAIYPGDDDTIYTQKFKGKATLTADKSSSTAYMQLSSLASEDSAVYYCARNYDYQAWFAYWGQGTLVTVSA VL: QIVLTQSPALMSASPGEKVTMTCSASSSVSYMYWYQQKPRSSPKPWIYLTSNLASGVPARFSGSGSGTSYSLTISSMEAEDAATYYCQQWSSNPLTFGAGTKLELK	kon	M⁻¹ s⁻¹	337000

Next binder, please.
Value of measured kon for the entry PHD49-01 (humanized muPHD49) (antibody, human IgG4, V domains shown) VH: QVQLVQSGAEVKKPGSSVKVSCKASGYTFSSYWMQWVRQAPGQGLEWIGAIYPGDDDTIYTQKFKGRATLTADKSTSTAYMELSSLRSEDTAVYYCARNYDYQAWFAYWGQGTLVTVSS VL: DIQMTQSPSSLSASVGDRVTITCSASSSVSYMYWYQQKPGKAPKPWIYLTSNLASGVPSRFSGSGSGTDYTLTISSLQPEDFATYYCQQWSSNPLTFGQGTKLEIK : 203000
